biological target: GABA-A receptor; alpha-1/beta-3/gamma-2 (Homo sapiens) (UniProt P14867+P18507+P28472); test: It is the ratio of Ki value for alpha-1-beta-3-gamma-2 to that of alpha-5-beta-3-gamma-2; type: protein-complex assay
Reported Ratio values for the following compounds.
// no unit string in output, number only

The cases that follow already have their Ratio on record.
compound: CC#Cc1ccc2c(c1)C(=O)N(C)Cc1c(C(=O)OCC)ncn1-2
targetUnderTest: GABA-A receptor; alpha-1/beta-3/gamma-2 (Homo sapiens) (UniProt P14867+P18507+P28472)
outcomeMeasure: Ratio
measuredValue: 6

compound: CN1Cc2c(C(=O)OCC3CC3)ncn2-c2ccc(Cl)cc2C1=O
targetUnderTest: GABA-A receptor; alpha-1/beta-3/gamma-2 (Homo sapiens) (UniProt P14867+P18507+P28472)
outcomeMeasure: Ratio
measuredValue: 1.7

compound: C#Cc1ccc2c(c1)C(=O)N(C)Cc1c(C(=O)OCC)ncn1-2
targetUnderTest: GABA-A receptor; alpha-1/beta-3/gamma-2 (Homo sapiens) (UniProt P14867+P18507+P28472)
outcomeMeasure: Ratio
measuredValue: 58

compound: CCOC(=O)c1ncn2c1CN(C)C(=O)c1cc(CC)ccc1-2
targetUnderTest: GABA-A receptor; alpha-1/beta-3/gamma-2 (Homo sapiens) (UniProt P14867+P18507+P28472)
outcomeMeasure: Ratio
measuredValue: 13.6

compound: CCN(CC)Cc1ncn2c1CN(C)C(=O)c1cc(Cl)ccc1-2
targetUnderTest: GABA-A receptor; alpha-1/beta-3/gamma-2 (Homo sapiens) (UniProt P14867+P18507+P28472)
outcomeMeasure: Ratio
measuredValue: 3.2

Form field Ratio, entry `CN1Cc2c(C(=O)OC(C)(C)C)ncn2-c2ccc(Br)cc2C1=O` : 24.3

GET /value?item= `COc1ccc2c(c1)C(=O)N(C)Cc1c(C(=O)OC(C)(C)C)ncn1-2` &field=Ratio returns 23

The reported Ratio of the compound `CCc1ncn2c1CN(C)C(=O)c1cc(Cl)ccc1-2` was 2.2

CCOC(=O)c1ncn2c1CN(C)C(=O)c1cc(Cl)ccc1-2 [Ro-151310] yielded Ratio of 8

Sample `C#Cc1ccc2c(c1)C(=O)N1CCC[C@H]1c1c(-c3nc(CC)no3)ncn1-2` ; Ratio observed: 36

GET /value?item= `CN1Cc2c(C(=O)OC(C)(C)C)ncn2-c2ccc(N=[N+]=[N-])cc2C1=O` &field=Ratio returns 24.3

In plain terms, `C#Cc1ccc2c(c1)C(=O)N1CC[C@H]1c1c(C(=O)OCC)ncn1-2` has a documented Ratio of 57

The compound listed as `CCCCCc1ncn2c1CN(C)C(=O)c1cc(Cl)ccc1-2` shows Ratio equal to 5.6

Quick note, Ratio for `CCOC(=O)c1ncn2c1CN(C)C(=O)c1cc(OCC)ccc1-2` landed at 12.4

What the record says about `CCOC(=O)c1ncn2c1[C@@H]1CCCN1C(=O)c1cc(OC)ccc1-2` : Ratio is 108

Ratio for `CN1Cc2c(C(=O)OC(C)(C)C)ncn2-c2ccc([N+](=O)[O-])cc2C1=O` is 3.7

For this compound ( `C=Cc1ccc2c(c1)C(=O)N(C)Cc1c(C(=O)OCC)ncn1-2` ), measured Ratio is 20.8

Ratio reading for `C#Cc1ccc2c(c1)C(=O)N1CCC[C@H]1c1c(C(=O)OCC)ncn1-2` : 45

Consider `CCc1ccc2c(c1)C(=O)N(C)Cc1c(C(=O)OC(C)(C)C)ncn1-2` . Its measured Ratio is 8.6

Item: `C#Cc1ccc2c(c1)C(=O)N1CCC[C@H]1c1c(-c3nc(C)no3)ncn1-2` | Ratio: 24

The reported value for `CN1Cc2c(C(=O)OC(C)(C)C)ncn2-c2ccc(O)cc2C1=O` in terms of Ratio is 10.7
